measurementProtocol: Metal chelating activity of the compound assessed as formation of Ni2+ complex by UV-vis spectrometry
Assay type: physicochemical
parameterMeasured: Activity

* COC(=O)c1ccc(O)c(/C=N/NC(=O)c2ccc3c4c(ccc3c2)N2Cc3c(ccc5cc(C(=O)N/N=C/c6cc(C(=O)OC)ccc6O)ccc35)N(C4)C2)c1 | Active
* O=C(N/N=C/c1cc(O)ccc1O)c1ccc2c3c(ccc2c1)N1Cc2c(ccc4cc(C(=O)N/N=C/c5cc(O)ccc5O)ccc24)N(C3)C1 | Active
* O=C(NN=C(c1ccccn1)c1ccccn1)c1ccc2c3c(ccc2c1)N1Cc2c(ccc4cc(C(=O)NN=C(c5ccccn5)c5ccccn5)ccc24)N(C3)C1 | Active
* O=C(N/N=C/c1cc(Cl)ccc1O)c1ccc2c3c(ccc2c1)N1Cc2c(ccc4cc(C(=O)N/N=C/c5cc(Cl)ccc5O)ccc24)N(C3)C1 | Active
* COc1ccc(O)c(/C=N/NC(=O)c2ccc3c4c(ccc3c2)N2Cc3c(ccc5cc(C(=O)N/N=C/c6cc(OC)ccc6O)ccc35)N(C4)C2)c1 | Active

// query Activity value for entry O=C(N/N=C/c1cc(F)ccc1O)c1ccc2c3c(ccc2c1)N1Cc2c(ccc4cc(C(=O)N/N=C/c5cc(F)ccc5O)ccc24)N(C3)C1
Active

Another compound: Cc1ccc(O)c(/C=N/NC(=O)c2ccc3c4c(ccc3c2)N2Cc3c(ccc5cc(C(=O)N/N=C/c6cc(C)ccc6O)ccc35)N(C4)C2)c1
Active

Entry to check: O=C(N/N=C/c1ccccc1O)c1ccc2c3c(ccc2c1)N1Cc2c(ccc4cc(C(=O)N/N=C/c5ccccc5O)ccc24)N(C3)C1
Active
